B1: HDV Ribozyme (parent)
chain: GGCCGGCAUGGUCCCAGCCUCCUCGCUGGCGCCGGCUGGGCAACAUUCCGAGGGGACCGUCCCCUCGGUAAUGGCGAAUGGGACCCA

variants of: B1; assay: self-cleavage, relative activity (ratio to wild type); higher = more cleavage; co-transcriptional
MEASURED PARAMETER: self-cleavage

• G31C U46G = 0.266
• C4U G39C = 0.0536
• C24A U72A = 0.271
• G5A C66A = 0.173
• G74C G82C = 0.0475
• C15A G31U = 0.0339
• U27G A56C = 0.712
• C41U C86U = 0.967
• C18A C49A = 0.111
• C26U G81U = 0.439
• C36G U60G = 0.0723
• G59C C62A = 0.87
• G25U G76U = 0.389
• C15G G52A = 0.807
• G2U C13U = 0
• A56C G59C = 1.05
• C33A C49G = 0.166
• A8U A70U = 0.772
• U23C G35A = 0.655
• U60C C62A = 1.01
• U9G G67A = 0.88
• C4G U9A = 0.534
